I'd be grateful if you could share measured Log 1/C for these entries.
Target: DNA polymerase beta (Mus musculus)
Assay: The logarithm of the reciprocal of the concentration which produces 50% inhibition of mammalian beta DNA polymerase.
Numbers only.

INSERT INTO assay_data (compound, target_under_test, reading) VALUES
  ('CCCCCCCCN(CCCCCCCC)/N=C/c1cc2c3c4c(C)c(O)c2c(O)c1NC(=O)/C(C)=C\C=C\C(C)C(O)C(C)C(O)C(C)C(OC(C)=O)C(C)C(OC)/C=C/OC(C)(O4)C3=O (stereo in doubt; 8)', 'DNA polymerase beta (Mus musculus)', 5.13),
  ('CCCCCCCCO/N=C/c1cc2c3c4c(C)c(O)c2c(O)c1NC(=O)/C(C)=C\C=C\C(C)C(O)C(C)C(O)C(C)C(OC(C)=O)C(C)C(OC)/C=C/OC(C)(O4)C3=O (stereo not given)', 'DNA polymerase beta (Mus musculus)', 4.89),
  ('CCCCCN(CCCCC)/N=C/c1cc2c3c4c(C)c(O)c2c(O)c1NC(=O)/C(C)=C\C=C\C(C)C(O)C(C)C(O)C(C)C(OC(C)=O)C(C)C(OC)/C=C/OC(C)(O4)C3=O (stereo not given)', 'DNA polymerase beta (Mus musculus)', 4.32),
  ('COC1/C=C/OC2(C)Oc3c(C)c(O)c4c(O)c(ccc4c3C2=O)NC(=O)/C(C)=C\C=C\C(C)C(O)C(C)C(O)C(C)C(OC(C)=O)C1C (stereo not given)', 'DNA polymerase beta (Mus musculus)', 2.96);

// next entry
# get_value(readout='Log 1/C', item= COc1cccc(CN2CCN(/N=C/c3cc4c5c6c(C)c(O)c4c(O)c3NC(=O)/C(C)=C\C=C\C(C)C(O)C(C)C(O)C(C)C(OC(C)=O)C(C)C(OC)/C=C/OC(C)(O6)C5=O)CC2)c1 (stereo not given) )
3.92

----------
Assay: Ability to inhibit mouse alpha DNA polymerase
Note to self: use t only for IC50 readings below 0.0003 M l-1; a reading exactly at 0.0003 M l-1 still gets f.

Known results for compounds:
INSERT INTO measurements (compound, category_label) VALUES
  ('COC1/C=C/OC2(C)Oc3c(C)c(O)c4c(O)c(c(CN5CCNCC5)cc4c3C2=O)NC(=O)/C(C)=C\C=C\C(C)C(O)C(C)C(O)C(C)C(OC(C)=O)C1C (stereo unspecified)', 'f'),
  ('CCCN(CCC)/N=C/c1cc2c3c4c(C)c(O)c2c(O)c1NC(=O)/C(C)=C\C=C\C(C)C(O)C(C)C(O)C(C)C(OC(C)=O)C(C)C(OC)/C=C/OC(C)(O4)C3=O (stereo unspecified)', 't'),
  ('CCN(CC)Cc1cc2c3c4c(C)c(O)c2c(O)c1NC(=O)/C(C)=C\C=C\C(C)C(O)C(C)C(O)C(C)C(OC(C)=O)C(C)C(OC)/C=C/OC(C)(O4)C3=O (stereo unspecified)', 'f'),
  ('COC1/C=C/OC2(C)Oc3c(C)c(O)c4c(O)c(c(C=O)cc4c3C2=O)NC(=O)/C(C)=C\C=C\C(C)C(O)C(C)C(O)C(C)C(OC(C)=O)C1C (stereo unspecified)', 't'),
  ('COC1/C=C/OC2(C)Oc3c(C)c(O)c4c(O)c(c(/C=N/N5CCN(C)CC5)cc4c3C2=O)NC(=O)/C(C)=C\C=C\C(C)C(O)C(C)C(O)C(C)C(OC(C)=O)C1C (stereo unspecified)', 'f');

Query compound follows.
Is it true that IC50 reported for CCCCCCCCO/N=C/c1cc2c3c4c(C)c(O)c2c(O)c1NC(=O)/C(C)=C\C=C\C(C)C(O)C(C)C(O)C(C)C(OC(C)=O)C(C)C(OC)/C=C/OC(C)(O4)C3=O (stereo unspecified) is less than 0.0003 M l-1?
t

----------
Molecular target: Gag-Pol polyprotein (Woolly monkey sarcoma virus) (UniProt P03359)
Sequence (P03359 whole entry): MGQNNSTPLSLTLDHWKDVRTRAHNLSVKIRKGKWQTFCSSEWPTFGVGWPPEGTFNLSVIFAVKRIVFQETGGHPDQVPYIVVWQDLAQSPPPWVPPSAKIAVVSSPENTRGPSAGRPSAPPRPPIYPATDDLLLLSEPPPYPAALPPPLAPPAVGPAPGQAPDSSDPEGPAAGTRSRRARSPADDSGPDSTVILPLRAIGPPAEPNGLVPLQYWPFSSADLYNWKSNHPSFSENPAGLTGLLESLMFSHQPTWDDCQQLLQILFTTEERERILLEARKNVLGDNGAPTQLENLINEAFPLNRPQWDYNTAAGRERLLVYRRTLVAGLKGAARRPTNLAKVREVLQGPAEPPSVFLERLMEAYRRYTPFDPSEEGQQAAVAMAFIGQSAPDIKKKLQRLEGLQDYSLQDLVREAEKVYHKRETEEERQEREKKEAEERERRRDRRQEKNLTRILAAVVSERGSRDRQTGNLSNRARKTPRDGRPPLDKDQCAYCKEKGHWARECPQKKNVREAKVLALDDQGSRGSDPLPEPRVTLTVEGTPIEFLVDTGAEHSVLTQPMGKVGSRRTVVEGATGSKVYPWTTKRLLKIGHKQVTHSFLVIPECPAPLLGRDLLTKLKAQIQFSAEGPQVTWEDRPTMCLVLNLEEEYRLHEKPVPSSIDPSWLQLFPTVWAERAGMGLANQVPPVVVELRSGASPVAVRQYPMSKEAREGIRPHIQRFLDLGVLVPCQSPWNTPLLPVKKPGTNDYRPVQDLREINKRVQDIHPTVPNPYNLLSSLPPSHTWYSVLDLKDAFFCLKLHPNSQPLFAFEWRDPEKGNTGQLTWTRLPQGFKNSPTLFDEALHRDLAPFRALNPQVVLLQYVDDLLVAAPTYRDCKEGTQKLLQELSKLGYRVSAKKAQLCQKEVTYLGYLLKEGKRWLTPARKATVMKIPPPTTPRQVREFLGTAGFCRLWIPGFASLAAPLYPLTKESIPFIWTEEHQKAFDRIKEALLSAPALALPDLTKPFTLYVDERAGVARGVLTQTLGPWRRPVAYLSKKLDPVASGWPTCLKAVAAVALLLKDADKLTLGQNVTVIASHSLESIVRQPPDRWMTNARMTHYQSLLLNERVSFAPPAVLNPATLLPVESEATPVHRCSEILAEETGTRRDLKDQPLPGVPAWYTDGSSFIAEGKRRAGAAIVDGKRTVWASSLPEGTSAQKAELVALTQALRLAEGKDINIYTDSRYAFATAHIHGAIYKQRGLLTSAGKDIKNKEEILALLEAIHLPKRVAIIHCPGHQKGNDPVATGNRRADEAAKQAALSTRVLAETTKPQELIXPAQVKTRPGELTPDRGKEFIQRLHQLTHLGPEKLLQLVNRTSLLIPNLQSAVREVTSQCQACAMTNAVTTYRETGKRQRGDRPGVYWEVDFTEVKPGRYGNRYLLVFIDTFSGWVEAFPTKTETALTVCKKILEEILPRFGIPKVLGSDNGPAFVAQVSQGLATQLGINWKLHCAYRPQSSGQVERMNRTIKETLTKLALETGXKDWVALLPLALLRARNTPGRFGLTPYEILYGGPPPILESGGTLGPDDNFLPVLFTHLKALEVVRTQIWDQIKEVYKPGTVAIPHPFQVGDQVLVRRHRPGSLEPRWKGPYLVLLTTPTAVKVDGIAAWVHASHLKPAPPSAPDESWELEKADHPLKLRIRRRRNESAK
Test: Inhibition of simian sarcoma virus reverse transcriptase
The label depends only on Log 1/C: true (1) if it is at least 5, false (0) if it is smaller.

INSERT INTO assay_data (compound, category_label) VALUES
  ('COC1/C=C/OC2(C)Oc3c(C)c(O)c4c(O)c(c(O)cc4c3C2=O)NC(=O)/C(C)=C\C=C\C(C)C(O)C(C)C(O)C(C)C(OC(C)=O)C1C (stereo not given)', 'false (0)'),
  ('COC1/C=C/OC2(C)Oc3c(C)c(O)c4c(O)c(c(/C=N/N5CCCCCCCCCCCC5)cc4c3C2=O)NC(=O)/C(C)=C\C=C\C(C)C(O)C(C)C(O)C(C)C(OC(C)=O)C1C (stereo in doubt; 17)', 'true (1)');

For this compound, is measured Log 1/C 5 or higher? CCCCCN(CCCCC)/N=C/c1cc2c3c4c(C)c(O)c2c(O)c1NC(=O)/C(C)=C\C=C\C(C)C(O)C(C)C(O)C(C)C(OC(C)=O)C(C)C(OC)/C=C/OC(C)(O4)C3=O (stereo not given)
true (1)

COC1/C=C/OC2(C)Oc3c(C)c(O)c4c(O)c(c(/C=N/N5CCN(N)CC5)cc4c3C2=O)NC(=O)/C(C)=C\C=C\C(C)C(O)C(C)C(O)C(C)C(OC(C)=O)C1C (stereo not given) ?
false (0)

----------
Target: DNA polymerase beta (Mus musculus, UniProt Q8K409)
Experiment: Ability to inhibit mouse beta DNA polymerase
metric: IC50 (M l-1)
Give bare numbers, in M l-1.

Worked set:
INSERT INTO measurements (compound, metric, reading) VALUES
  ('COC1/C=C/OC2(C)Oc3c(C)c(O)c4c(O)c(c(CN5CCNCC5)cc4c3C2=O)NC(=O)/C(C)=C\C=C\C(C)C(O)C(C)C(O)C(C)C(OC(C)=O)C1C (stereo not drawn)', 'IC50', 0.0042),
  ('CCN(CC)Cc1cc2c3c4c(C)c(O)c2c(O)c1NC(=O)/C(C)=C\C=C\C(C)C(O)C(C)C(O)C(C)C(OC(C)=O)C(C)C(OC)/C=C/OC(C)(O4)C3=O (stereo not drawn)', 'IC50', 0.0011),
  ('COC1/C=C/OC2(C)Oc3c(C)c(O)c4c(O)c(c(O)cc4c3C2=O)NC(=O)/C(C)=C\C=C\C(C)C(O)C(C)C(O)C(C)C(OC(C)=O)C1C (stereo not drawn)', 'IC50', 0.00037),
  ('COc1cccc(CN2CCN(/N=C/c3cc4c5c6c(C)c(O)c4c(O)c3NC(=O)/C(C)=C\C=C\C(C)C(O)C(C)C(O)C(C)C(OC(C)=O)C(C)C(OC)/C=C/OC(C)(O6)C5=O)CC2)c1 (stereo not drawn)', 'IC50', 0.00012),
  ('COC1/C=C/OC2(C)Oc3c(C)c(O)c4c(O)c(c(/C=N/N5CCN(C)CC5)cc4c3C2=O)NC(=O)/C(C)=C\C=C\C(C)C(O)C(C)C(O)C(C)C(OC(C)=O)C1C (stereo not drawn)', 'IC50', 0.00015);

Would you mind giving IC50 for every compound in the list below?
1. COC1/C=C/OC2(C)Oc3c(C)c(O)c4c(O)c(c(C=O)cc4c3C2=O)NC(=O)/C(C)=C\C=C\C(C)C(O)C(C)C(O)C(C)C(OC(C)=O)C1C (stereo not drawn)
2. COC1/C=C/OC2(C)Oc3c(C)c(O)c4c(O)c(ccc4c3C2=O)NC(=O)/C(C)=C\C=C\C(C)C(O)C(C)C(O)C(C)C(OC(C)=O)C1C (stereo not drawn)
3. COC1/C=C/OC2(C)Oc3c(C)c(O)c4c(O)c(c(/C=N/N5CCCC5)cc4c3C2=O)NC(=O)/C(C)=C\C=C\C(C)C(O)C(C)C(O)C(C)C(OC(C)=O)C1C (stereo not drawn)

1. 0.000104
2. 0.0011
3. 0.00024

----------
I'd be grateful if you could share measured Log 1/C for these entries.
Experiment: The logarithm of the reciprocal of the concentration which produces 50% inhibition of mammalian alpha DNA polymerase.
One number for each entry.

Worked set:
INSERT INTO results (molecule, reading) VALUES
  ('COC1/C=C/OC2(C)Oc3c(C)c(O)c4c(O)c(c(/C=N/Nc5ccc([N+](=O)[O-])cc5[N+](=O)[O-])cc4c3C2=O)NC(=O)/C(C)=C\C=C\C(C)C(O)C(C)C(O)C(C)C(OC(C)=O)C1C (stereo not drawn)', 4.35),
  ('COC1/C=C/OC2(C)Oc3c(C)c(O)c4c(O)c(c(C=O)cc4c3C2=O)NC(=O)/C(C)=C\C=C\C(C)C(O)C(C)C(O)C(C)C(OC(C)=O)C1C (stereo not drawn)', 2.99);

// next entry
# get_value(readout='Log 1/C', item= COC1/C=C/OC2(C)Oc3c(C)c(O)c4c(O)c(c(/C=N/N5CCCCCCCCCC5)cc4c3C2=O)NC(=O)/C(C)=C\C=C\C(C)C(O)C(C)C(O)C(C)C(OC(C)=O)C1C (stereo not drawn) )
4.51

Hey, just so you know, these numbers are from ChEMBL document CHEMBL1121400.
